Biological target: Human recombinant MAO-B (Homo sapiens, UniProt P27338)
Construct: host or cells: insect cells
Sequence (P27338 whole entry): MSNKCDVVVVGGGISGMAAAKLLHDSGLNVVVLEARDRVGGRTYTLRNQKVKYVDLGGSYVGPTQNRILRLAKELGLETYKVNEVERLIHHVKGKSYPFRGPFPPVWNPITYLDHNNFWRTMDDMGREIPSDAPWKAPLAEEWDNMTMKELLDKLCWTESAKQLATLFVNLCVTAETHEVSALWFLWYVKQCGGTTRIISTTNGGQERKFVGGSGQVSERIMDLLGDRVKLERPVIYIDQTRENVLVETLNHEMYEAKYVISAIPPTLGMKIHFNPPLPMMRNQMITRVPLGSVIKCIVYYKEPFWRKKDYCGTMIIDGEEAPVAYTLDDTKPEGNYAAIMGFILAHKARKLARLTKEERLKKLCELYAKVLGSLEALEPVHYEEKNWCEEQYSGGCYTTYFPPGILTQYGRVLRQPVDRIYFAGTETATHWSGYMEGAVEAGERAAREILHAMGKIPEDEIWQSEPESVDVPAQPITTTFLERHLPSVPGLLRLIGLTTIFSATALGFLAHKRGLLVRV
Assay: MAO-B enzymatic assay (fluorometric, kynuramine)
Assay type: biochemical
Details: human recombinant MAO-B expressed in insect cells; kynuramine substrate; values given as bins; read-out: MAO-B (pEC50) (converted)
Reported EC50 by item:

| smiles | result |
| --- | --- |
| NC(=O)c1cnc2cc(OCc3cccc(Cl)c3)cnc2c1 | < 100 nM |

INPUT: Give EC50 for the following compound: CC(C)(CO)c1cnc2cc(OCc3cccc(Cl)c3)ccc2c1
OUTPUT: < 100 nM

INPUT: Give EC50 for the following compound: CNC(=O)c1cnc2cc(OCc3cccc(Cl)c3)ccc2c1
OUTPUT: < 100 nM

INPUT: Give EC50 for the following compound: OCc1cnc2cc(OCc3cc(F)cc(F)c3)ccc2c1
OUTPUT: < 100 nM

INPUT: Give EC50 for the following compound: CCOC(=O)c1cnc2cc(OCc3cc(F)c(F)c(F)c3)ccc2c1
OUTPUT: < 100 nM

INPUT: Give EC50 for the following compound: CC(C)(O)c1cc2ccc(OCc3ccc(F)cc3)cc2[n+]([O-])c1
OUTPUT: 100 to 1000 nM

INPUT: Give EC50 for the following compound: CCOC(=O)c1cnc2cc(OCCc3cccc(Cl)c3)ccc2c1
OUTPUT: 100 to 1000 nM

INPUT: Give EC50 for the following compound: CC(=O)c1cnc2cc(OCc3ccc(F)cc3)ccc2c1
OUTPUT: < 100 nM

INPUT: Give EC50 for the following compound: CCOC(=O)c1cnc2cc(OCc3cccc(F)c3)ccc2c1
OUTPUT: < 100 nM

INPUT: Give EC50 for the following compound: CC(C)(C(N)=O)c1cnc2cc(OCc3cccc(Cl)c3)ccc2c1
OUTPUT: < 100 nM

INPUT: Give EC50 for the following compound: CCOC(=O)c1cnc2cc(OCc3ccc(C(F)(F)F)cc3)ccc2c1
OUTPUT: 100 to 1000 nM

INPUT: Give EC50 for the following compound: NCCNC(=O)c1cnc2cc(OCc3cccc(Cl)c3)ccc2c1
OUTPUT: < 100 nM

* * *

Biological target: Human recombinant MAO-B (Homo sapiens, UniProt P27338)
Construct: host or cells: insect cells
Assay: MAO-B enzymatic assay (fluorometric, kynuramine)
Format: biochemical
Details: human recombinant MAO-B expressed in insect cells; kynuramine substrate; values given as bins; read-out: MAO-B (pEC50) (converted)
observable: EC50

Use these answered entries as a reference point.
| smiles | EC50 |
| --- | --- |
| NC(=O)Cc1cnc2cc(OCc3ccnc(C(F)(F)F)c3)ccc2c1 | < 100 nM |
| CC(C)(O)c1cnc2cc(OCc3cc(F)c(F)c(F)c3)ccc2c1 | < 100 nM |
| NC(=O)c1cnc2cc(OCc3ccc(F)c(F)c3)cnc2c1 | < 100 nM |
| NC(=O)c1cnc2cc(OCc3ccc(F)c(Cl)c3)cnc2c1 | < 100 nM |
| CCOC(=O)c1cnc2cc(OCc3cc(F)cc(C(F)(F)F)c3)ccc2c1 | < 100 nM |
| CCOC(=O)c1cnc2cc(OCc3cccc(Cl)c3)ccc2c1 | < 100 nM |
| CCOC(=O)c1cnc2cc(OCc3ccc([N+](=O)[O-])cc3)ccc2c1 | 100 to 1000 nM |
| CCOC(=O)c1cnc2cc(OCc3ccc(F)c(Cl)c3)ccc2c1 | < 100 nM |

INPUT: Give EC50 for the following molecule: C[C@@H](O)c1cnc2cc(OCc3ccc(F)cc3)ccc2c1
OUTPUT: < 100 nM

INPUT: Give EC50 for the following molecule: NC(=O)c1cnc2cc(OCc3cccc(F)c3)cnc2c1
OUTPUT: < 100 nM

INPUT: Give EC50 for the following molecule: CC(C)(F)c1cnc2cc(OCc3ccc(F)cc3)ccc2c1
OUTPUT: < 100 nM

INPUT: Give EC50 for the following molecule: CC(C)(O)c1cnc2cc(OCCc3cccc(Cl)c3)ccc2c1
OUTPUT: 100 to 1000 nM

INPUT: Give EC50 for the following molecule: CCOC(=O)c1cnc2cc(OCc3cccc([N+](=O)[O-])c3)ccc2c1
OUTPUT: < 100 nM

INPUT: Give EC50 for the following molecule: NC(=O)Cc1cnc2cc(OCc3cccc(F)c3)ccc2c1
OUTPUT: < 100 nM

INPUT: Give EC50 for the following molecule: NCc1cnc2cc(OCc3cccc(Cl)c3)ccc2c1
OUTPUT: < 100 nM

INPUT: Give EC50 for the following molecule: CCOC(=O)c1cnc2cc(OCc3ccc(C)cc3)ccc2c1
OUTPUT: 100 to 1000 nM

INPUT: Give EC50 for the following molecule: CCOC(=O)c1cnc2cc(OCc3cccc(C)c3)ccc2c1
OUTPUT: < 100 nM

INPUT: Give EC50 for the following molecule: CC(C)(O)c1cnc2cc(OCc3ccc(F)cc3)ccc2c1
OUTPUT: < 100 nM

INPUT: Give EC50 for the following molecule: OCc1cnc2cc(OCc3ccc(F)c(F)c3)cnc2c1
OUTPUT: < 100 nM

INPUT: Give EC50 for the following molecule: OCCc1cnc2cc(OCc3cccc(Cl)c3)ccc2c1
OUTPUT: < 100 nM
